Listing: Neuraminidase activity normalized to vehicle of selected substances
# System: influenza A H1N1 virus
# Test settings: 0,823 µM peptide, 48 hr post-treatment, A549
Metric: Neuraminidase activity normalized to vehicle

[
  {
    "Substance": "DDLYEEV [CPEP111]",
    "Readout value": "0,9384"
  },
  {
    "Substance": "EVLADNLPPP [CPEP90]",
    "Readout value": "0,9901"
  },
  {
    "Substance": "CPEP63: peptide of the viral peptide library; sequence page not shown (KARHKRRNRSSRS)",
    "Readout value": "0,6161"
  },
  {
    "Substance": "IVISDSEEE [CPEP121]",
    "Readout value": "1,0507"
  },
  {
    "Substance": "FPESLIL [CPEP76]",
    "Readout value": "0,7594"
  },
  {
    "Substance": "GARASVLS [CPEP108]",
    "Readout value": "0,7112"
  },
  {
    "Substance": "LTEDRWNKPQKTKGH [CPEP141]",
    "Readout value": "0,8505"
  },
  {
    "Substance": "LRKRRKRL [CPEP145]",
    "Readout value": "0,8361"
  },
  {
    "Substance": "SAPCLLKLSTTLLCLEI [CPEP124]",
    "Readout value": "1,0611"
  },
  {
    "Substance": "CPEP102: peptide of the viral peptide library; sequence page not shown (PHGPVQLSYYD)",
    "Readout value": "0,6759"
  },
  {
    "Substance": "QRRGRTGRG [CPEP40]",
    "Readout value": "1,0647"
  },
  {
    "Substance": "CPEP69: peptide of the viral peptide library; sequence page not shown (MRHIICHGGVITEE)",
    "Readout value": "0,9574"
  }
]
